assay_info: qHTS assay for measurement of the activity of small molecule inhibitors on Zika virus induced Caspase-3 activity in human astrocytoma cells (AID 1224859);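 further: plate controls were ZIKV-infected untreated cells for no effect and uninfected cells for full effect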
experimental_conditions: SNB-19 ZIKV-induced caspase-3/7, luminescence, 6 h; series mostly up to 45.7 µM
Activity calls are given as the source filed them. The call rests on the fitted dose curve; in most records, active means well fitted inhibition curve with a large enough effect; inconclusive means small, poorly fitted or top-dose-only effect; inactive means no such curve, though single readings can be large or run the other way.
measured_endpoint: outcome

Worked cases, outcome given:
1) CC(C)n1cnc2c(NCCCCCCNC(=O)OC(C)(C)C)nc(NCCO)nc21
inactive
2) CCC(=O)NC[C@H](Cc1ccc(OCCc2nc(-c3ccccc3)oc2C)cc1)NC(C)=CC(=O)c1ccc(C(F)(F)F)cc1
inactive
3) Cc1[nH]c(C=C2C(=O)Nc3ccc(S(=O)(=O)Cc4c(Cl)cccc4Cl)cc32)c(C)c1C(=O)N1CCC[C@H]1CN1CCCC1
inactive
4) CN1CCN(CCOc2cc(OC3CCOCC3)c3c(Nc4c(Cl)ccc5c4OCO5)ncnc3c2)CC1
inactive
5) COC(=O)C1=CO[C@@H](O)[C@@H]2C(CO)=CC[C@@H]12
inactive

Please look at the following compound next.
// query State the recorded outcome for this entry: O=C(O)[C@H]1O[C@H](Oc2cc3oc(-c4ccccc4)cc(=O)c3c(O)c2O)[C@H](O)[C@@H](O)[C@H]1O
// result inactive

###

assay_info: Cell Proliferation Assay against the TMD8 Cell Line (Caspase readout at 16 hrs) (AID 651712);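 on caspase activation: 0% = DMSO and 100% = 9.2 µM bortezomib caspase activation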
experimental_conditions: TMD8 lymphoma cells, caspase activation luminescence; series mostly up to 46.1 µM
Records with an inconclusive call do not appear. Active and inactive are the calls of the source. The call rests on the fitted dose curve; in most records, active means well fitted activation curve with a large enough effect; inconclusive means small, poorly fitted or top-dose-only effect; inactive means flat fitted curve, though single readings scatter.
One label from this list, please: Yes = active, No = inactive

Known results for compounds:
1) CC(=O)N(C)C1(c2ccccc2)CCN(CCC[C@]2(c3ccc(Cl)c(Cl)c3)CCCN(C(=O)c3ccccc3)C2)CC1
Yes
2) CS(=O)c1ccc(-c2nc(-c3ccc(F)cc3)c(-c3ccncc3)[nH]2)cc1 (stereo not given)
No
3) O=C(Nc1ccccc1-c1cn2c(CN3CCNCC3)csc2n1)c1cnc2ccccc2n1
No
4) O=C(O)c1ccc(-c2cc3cccnc3c(-c3ccc4nonc4c3)n2)cc1
No
5) COc1ncc(-c2ccc3nccc(-c4ccnnc4)c3c2)cc1NS(=O)(=O)c1ccc(F)cc1F
No
6) CC(C)C(=O)Nc1ncc(-c2cc(C(F)F)nn2-c2c(Cl)cccc2Cl)s1
Yes

// query Query: recorded result category for CC(C)(C(=O)NCC(F)(F)C(F)(F)F)C(=O)N[C@@H]1C(=O)Nc2ccccc2-c2ccccc21 in this test
// result No

// query Per the assay record, what outcome was assigned to COc1cc2ncnc(-n3nc(-c4ccccn4)nc3N)c2cc1OC ?
// result Yes

// query Recorded test outcome, item COc1cc(Nc2ncc(F)c(Nc3ccc4c(n3)NC(=O)C(C)(C)O4)n2)cc(OC)c1OC
// result No

// query For COc1cccc2c1CCCC2CCCN1CCN(C2CCCCC2)CC1 (stereo not given) , which call appears in the assay record?
// result Yes

###

assay_info: NS1 protein of Zika virus - qHTS assay to identify small molecule inhibitors in human HEK 293 cells (AID 1347053);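 further: plate controls were infected untreated cells for no effect and uninfected cells for full effect; nearly all actives have a fitted effect of over 55% in size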
experimental_conditions: HEK293 ZIKV MR766 infection, NS1 TR-FRET, 24 h; series mostly up to 46.1 µM
Records with an inconclusive call do not appear. The source made the active and inactive calls. Calls follow the shape of the dose curve; as a rule, active = well fitted inhibition curve with a large enough effect; inconclusive = small, poorly fitted or top-dose-only effect; inactive = no such curve, though single readings can be large or run the other way.
# valid calls are active, inactive; nothing else

Would you please look over these solved cases?
1) CC=CC(=O)N(CC)c1ccccc1C
inactive
2) O=C(O)c1cc(-c2ccccc2)nc2ccccc12
inactive
3) O=C(NC1CCOCC1)c1ccc(-c2cc(-c3cn[nH]c3-c3ccccn3)ccn2)cc1
inactive
4) CCOc1ccc(Nc2nc(-c3c(C)nc4ccccn34)cs2)cc1
inactive
5) Cc1cnc(C(=O)O)c[n+]1[O-]
inactive

// query What call does the record list for O=C(O)CCc1nc(-c2ccccc2)c(-c2ccccc2)o1 ?
// result inactive

// query Assay result, entry C[C@@H](O)[C@H]1C(=O)N2C(C(=O)O)=C(S[C@@H]3CN[C@H](C(=O)N(C)C)C3)[C@H](C)[C@H]12 — outcome?
// result inactive

// query Query: recorded result category for CC(C)[C@H](CO)Nc1nc(Nc2ccc(C(=O)O)c(Cl)c2)c2ncn(C(C)C)c2n1 in this test
// result inactive

// query Look up the recorded call for Clc1ccc(-c2nc3sccn3c2C=NOCc2ccc(Cl)c(Cl)c2)cc1 in this test.
// result inactive

// query // param item: CC[C@@]1(O)C[C@H](O[C@H]2C[C@H](N(C)C)[C@H](O[C@H]3C[C@H](O)[C@H](O[C@H]4CCC(=O)[C@H](C)O4)[C@H](C)O3)[C@H](C)O2)c2c(cc3c(c2O)C(=O)c2c(O)cccc2C3=O)[C@@H]1C(=O)OC ; yields the recorded call
// result inactive

// query // param item: C=C1C(=O)OC(CCCCCCCC)C1C(=O)O (configuration not stated) ; yields the recorded call
// result inactive

// query Per the records of this test, what outcome belongs to N#CC1(c2ccc(NC(=O)c3cccnc3NCc3ccncc3)cc2)CCCC1 ?
// result inactive

###

assay_info: Quantitative High-Throughput drug screen in 47 multiple myeloma cell lines against the NCATS MIPE library collection: L363_DSMZ cell viability assay (AID 1918984); further: nearly all actives have a fitted effect of over 40% in size
experimental_conditions: L363 myeloma viability, CellTiter-Glo ATP luminescence, 48 h; series mostly up to 45.8 µM
Records with an inconclusive call do not appear. Calls of active or inactive are those of the source. Calls follow the shape of the dose curve; as a rule, active = well fitted cell-killing curve with a large enough effect; inconclusive = small, poorly fitted or top-dose-only effect, or effect the other way; inactive = no such curve, though single readings can be large or run the other way.
Form entry, call: pick from t for active, f for inactive

Use the examples below as a reference point.
1. O=C(CCc1ccc(O)cc1)c1c(O)cc(O)cc1O[C@@H]1O[C@H](CO)[C@H](O)[C@H](O)[C@H]1O
f
2. Cc1[nH]c(C=C2C(=O)Nc3ccc(S(=O)(=O)Cc4c(Cl)cccc4Cl)cc32)c(C)c1C(=O)N1CCC[C@H]1CN1CCCC1
t
3. COc1cc(O)c2c(c1)C(=O)c1cc(C)cc(O)c1C2=O
f
4. CC=CC(=O)N(CC)c1ccccc1C
f

Please turn your attention to the following entry.
// query Recorded call for CC(C)C[C@H](CC(=O)O)C(=O)N[C@@H](Cc1c[nH]c2ccccc12)C(=O)N[C@@H](C)c1ccccc1 ?
// result f

###

Tested on: CASKI
assay_info: Primary qHTS to identify gynecologic anti-cancer compounds using libraries of approved drugs and bioactive compounds (AID 1345084); further: nearly all actives have a fitted effect of over 55% in size
experimental_conditions: Gynecologic cancer cell panel viability, ATPlite luminescence, 48 h; series mostly up to 57.5 µM
Records with an inconclusive call do not appear. The source made the active and inactive calls. The call rests on the fitted dose curve; in most records, active means well fitted cell-killing curve with a large enough effect; inconclusive means small, poorly fitted or top-dose-only effect, or effect the other way; inactive means flat fitted curve, though single readings scatter.
The reply should be one of these categories: 1.0 for active, 0.0 for inactive

Worked cases, answers included:
1. CCN1CCC[C@H]1CNC(=O)c1cc(S(N)(=O)=O)ccc1OC
0.0
2. CC(=O)O[C@]1(C(C)=O)CC[C@H]2[C@@H]3C=C(Cl)C4=CC(=O)[C@@H]5C[C@@H]5[C@]4(C)[C@H]3CC[C@@]21C
0.0
3. CC(C)n1nc(-c2ccc3oc(N)nc3c2)c2c(N)ncnc21
1.0

Continue with the next compound.
// query How did this test come out for Cn1c(N2CCCCS2(=O)=O)nc(C(=O)NCc2ccc(F)cc2)c(O)c1=O ?
// result 0.0

###

assay_info: qHTS of pediatric cancer cell lines to identify multiple opportunities for drug repurposing: Primary screen for NB-EBc1 cells (AID 1347095); further: potency means the concentration at half of the fitted maximal effect
experimental_conditions: NB-EBc1 neuroblastoma viability, CellTiter-Glo luminescence, 48 h; series mostly up to 46 µM
Results filed as inconclusive are left out. Activity calls are given as the source filed them. Calls follow the shape of the dose curve; as a rule, active = well fitted cell-killing curve with a large enough effect; inconclusive = small, poorly fitted or top-dose-only effect; inactive = no such curve, though single readings can be large or run the other way.
measured_endpoint: Potency

The examples below pair each entry with its known result.
1. CC(C)(Cc1ccc2ccccc2c1)NC[C@@H](O)COc1cccc(Cl)c1C#N
2.35 µM (active)
2. CCC(=O)NC[C@H](Cc1ccc(OCCc2nc(-c3ccccc3)oc2C)cc1)NC(C)=CC(=O)c1ccc(C(F)(F)F)cc1
0.743 µM (active)
3. CN(C)Cc1ccc(-c2nc3cccc4c3n2CCNC4=O)cc1
16.6 µM (active)
4. CC(C)(C(=O)NCC(F)(F)C(F)(F)F)C(=O)N[C@@H]1C(=O)Nc2ccccc2-c2ccccc21
4.69 µM (active)
5. Cn1cc(C=C2C(=O)Nc3cccnc32)c2ccccc21
inactive
6. CC[C@H]1OC(=O)[C@H](C)C(=O)[C@H](C)[C@@H](O[C@H]2O[C@H](C)C[C@H](N(C)C)[C@@H]2O)[C@](C)(OC)C[C@@H](C)C(=O)[C@H](C)[C@H]2N(CCCCn3cnc(-c4cccnc4)c3)C(=O)O[C@]12C
inactive

# ---- query compound ----
// query So what does the record say about Potency for O=C(NCc1ccccc1)c1csc(Nc2ccncn2)n1 ?
// result 14.8 µM (active)

###

assay_info: Quantitative High-Throughput drug screen in 47 multiple myeloma cell lines against the NCATS MIPE library collection: Delta47_JCRB cell viability assay (AID 1918925; further: nearly all actives have a fitted effect of over 45% in size)
experimental_conditions: Delta47 myeloma viability, CellTiter-Glo ATP, 48 h; series mostly up to 45.8 µM
Records with an inconclusive call do not appear. Activity calls are given as the source filed them. Calls come from the whole dose curve; as a rule, active = well fitted cell-killing curve with a large enough effect; inconclusive = small, poorly fitted or top-dose-only effect, or effect the other way; inactive = no such curve, though single readings can be large or run the other way.
Field 'call' accepts active, inactive

1) O=c1c(O)c(-c2ccc(O)cc2)oc2cc(O)cc(O)c12
active
2) N#CC(=C(N)Sc1ccccc1N)C(C#N)=C(N)Sc1ccccc1N
active
3) CO[C@H]1C=CO[C@@]2(C)Oc3c(C)c(O)c4c(O)c(c5c(c4c3C2=O)NC2(CCN(CC(C)C)CC2)N=5)=NC(=O)C(C)=CC=C[C@H](C)[C@H](O)[C@@H](C)[C@@H](O)[C@@H](C)[C@H](OC(C)=O)[C@H]1C
inactive

Now consider a different compound.
// query Call for entry CO[C@@H](C(=O)N1Cc2[nH]nc(NC(=O)c3ccc(N4CCN(C)CC4)cc3)c2C1)c1ccccc1 :
// result active
